Readings of MFI at 33.3 nM for the listed binders
assayTarget: T1, human CTLA-4 (CTLA4), expressed on CHO cells (human, UniProt P16410 36-223)
T1 construct: Full-length surface expression construct transduced by lentivirus into CHO cells; also called huCTLA4
T1 sequence (P16410 36-223): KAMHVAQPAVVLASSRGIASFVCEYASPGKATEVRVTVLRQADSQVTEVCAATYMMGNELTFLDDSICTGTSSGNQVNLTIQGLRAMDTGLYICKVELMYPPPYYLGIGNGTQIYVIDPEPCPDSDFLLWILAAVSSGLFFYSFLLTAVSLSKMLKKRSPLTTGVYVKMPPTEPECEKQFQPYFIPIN
protocolNotes: flow cytometry on CHO cells stably expressing human CTLA-4; PE anti-human Fc

# binder, MFI at 33.3 nM (MFI)
records = [
    ("variant CD80 IgV-Fc E35D/M38T/M43V/M47V/N48R/L85Q (Fc fusion, not shown: small tags and cut ends; a dimerising Fc or GST, Fc fusion of the variant IgV) VIHVTKEVKEVATLSCGHNVSVEELAQTRIYWQKDKKTVLTMVSGDVRIWPEYKNRTIFDITNNLSIVILALRPSDEGTYECVVQKYEKDAFKREHLAEVTLSVKAD", 204000),
    ("variant CD80 IgV-Fc E35D/M42V/M47V/E52D/L85Q (Fc fusion, not shown: small tags and cut ends; a dimerising Fc or GST, Fc fusion of the variant IgV) VIHVTKEVKEVATLSCGHNVSVEELAQTRIYWQKDKKMVLTVMSGDVNIWPDYKNRTIFDITNNLSIVILALRPSDEGTYECVVQKYEKDAFKREHLAEVTLSVKAD", 226000),
    ("variant CD80 IgV-Fc Q33L/E35D/M43I/Y53F/T62S/L85Q (Fc fusion, not shown: small tags and cut ends; a dimerising Fc or GST, Fc fusion of the variant IgV) VIHVTKEVKEVATLSCGHNVSVEELAQTRIYWLKDKKMVLTMISGDMNIWPEFKNRTIFDISNNLSIVILALRPSDEGTYECVVQKYEKDAFKREHLAEVTLSVKAD", 3980),
    ("variant CD80 IgV-Fc E35D/M47L/A71G/L85M/F92Y (Fc fusion, not shown: small tags and cut ends; a dimerising Fc or GST, Fc fusion of the variant IgV) VIHVTKEVKEVATLSCGHNVSVEELAQTRIYWQKDKKMVLTMMSGDLNIWPEYKNRTIFDITNNLSIVILGLRPSDEGTYECVVMKYEKDAYKREHLAEVTLSVKAD", 216000),
]
